B1: library; numbered along this chain (parent)
chain: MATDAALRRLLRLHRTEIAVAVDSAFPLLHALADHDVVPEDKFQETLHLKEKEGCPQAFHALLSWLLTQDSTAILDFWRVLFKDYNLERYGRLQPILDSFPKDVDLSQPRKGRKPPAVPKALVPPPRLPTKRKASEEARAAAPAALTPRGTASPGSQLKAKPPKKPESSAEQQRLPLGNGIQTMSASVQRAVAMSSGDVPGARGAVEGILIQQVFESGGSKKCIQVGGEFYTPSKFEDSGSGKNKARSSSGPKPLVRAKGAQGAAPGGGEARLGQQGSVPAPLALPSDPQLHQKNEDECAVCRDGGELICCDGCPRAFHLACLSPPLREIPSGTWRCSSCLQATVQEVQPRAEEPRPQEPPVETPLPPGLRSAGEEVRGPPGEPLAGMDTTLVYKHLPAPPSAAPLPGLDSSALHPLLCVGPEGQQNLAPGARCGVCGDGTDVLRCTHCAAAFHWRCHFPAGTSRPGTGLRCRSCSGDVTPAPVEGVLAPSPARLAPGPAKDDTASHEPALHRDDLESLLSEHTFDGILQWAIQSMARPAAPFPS

Variants of: B1
Assay: AIRE transcriptional activation functional score (insulin promoter-GFP; nonsense median 0, synonymous median 1) (normalised score); higher = higher AIRE activity (more reporter activation)
Settings: with insulin promoter-GFP reporter in HEK293
I'd appreciate it if you could label each record using AIRE transcriptional activation functional score and these ranges: lower segment: < 0.6; middle segment: ≥ 0.6 and < 1; upper segment: ≥ 1

// return the class label for R538S
middle segment
